Target: Mu-type opioid receptor (Homo sapiens, UniProt P35372)
Sequence (P35372 whole entry): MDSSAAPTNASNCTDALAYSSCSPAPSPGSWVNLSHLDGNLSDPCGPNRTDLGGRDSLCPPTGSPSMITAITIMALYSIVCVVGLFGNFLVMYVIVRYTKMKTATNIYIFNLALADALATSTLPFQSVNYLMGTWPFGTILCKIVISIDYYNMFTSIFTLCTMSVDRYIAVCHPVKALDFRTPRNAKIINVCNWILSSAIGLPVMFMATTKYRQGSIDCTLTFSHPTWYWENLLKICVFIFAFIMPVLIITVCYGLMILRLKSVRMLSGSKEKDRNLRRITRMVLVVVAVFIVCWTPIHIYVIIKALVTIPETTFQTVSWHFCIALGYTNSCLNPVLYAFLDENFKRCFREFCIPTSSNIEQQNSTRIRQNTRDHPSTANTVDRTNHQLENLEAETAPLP
Assay: Displacement of [3H]-DAMGO from recombinant human mu opioid receptor expressed in CHO cell membrane incubated for 60 mins by liquid scintillation counting method
Numbered stars: 1 amine (or outer) side, 2 acyl side, 3 side chain; on linkers, the order of the positions; unused ones are H or OH. Square brackets hold non-standard residues; d marks the D form. Peptide text beside a SMILES is read from it. X1 = O=C1[C@@H](N[*:1])Cc2ccccc2CN1CCC(=O)[*:2]; Dmt = Cc1cc(O)cc(C)c1C[C@H](N)C(=O)O; mTyr = N[C@@H](Cc1cccc(O)c1)C(=O)O; Tle = CC(C)(C)[C@H](N)C(=O)O; β3hK = NCCCC[C@H](N)CC(=O)O
Recorded measurements of Ki, one per entry
Field: numeric (nM). Do not append units.

**Q:** Entry Cc1cc(O)cc(C)c1C[C@H](N)C(=O)N[C@H](CCCNC(=N)N)C(=O)N[C@H]1Cc2ccccc2CN(CCC(=O)N[C@@H](CCCCN)C(=O)N[C@@H](CCCCN)C(=O)N2CCC[C@H]2C(=O)N[C@@H](Cc2ccc(O)cc2)C(=O)N[C@H](C(=O)N[C@@H](CC(C)C)C(=O)O)C(C)(C)C)C1=O (H-[Dmt][dR][X1]KKPY[Tle]L-OH) : reported Ki = ?
**A:** 4.89

**Q:** Entry Cc1cc(O)cc(C)c1C[C@H](N)C(=O)N[C@H](CCCCN)C(=O)N[C@@H](Cc1ccccc1)C(=O)N[C@@H](Cc1ccccc1)C(=O)N[C@@H](CCCCN)C(=O)N[C@@H](CCCCN)C(=O)N1CCC[C@H]1C(=O)N[C@@H](Cc1ccccc1)C(=O)N[C@H](C(=O)N[C@@H](CC(C)C)C(=O)O)C(C)(C)C (H-[Dmt][dK]FFKKPF[Tle]L-OH) : reported Ki = ?
**A:** 4.13

**Q:** Entry Cc1cc(O)cc(C)c1C[C@H](N)C(=O)N[C@H](CCCNC(=N)N)C(=O)N[C@H]1Cc2ccccc2CN(CCC(=O)N[C@@H](CCCNC(=N)N)C(=O)N[C@@H](CCCNC(=N)N)C(=O)N2CCC[C@H]2C(=O)N[C@@H](Cc2cccc(O)c2)C(=O)N[C@H](C(=O)N[C@@H](CC(C)C)C(=O)O)C(C)(C)C)C1=O (H-[Dmt][dR][X1]RRP[mTyr][Tle]L-OH) : reported Ki = ?
**A:** 1.73

**Q:** Entry Cc1cc(O)cc(C)c1C[C@H](NC(=O)[C@@H]1CCCN1C(=O)[C@H](CCCCN)NC(=O)C[C@H](CCCCN)NC(=O)CCN1Cc2ccccc2C[C@H](NC(=O)[C@@H](CCCNC(=N)N)NC(=O)[C@@H](N)Cc2c(C)cc(O)cc2C)C1=O)C(=O)N[C@H](C(=O)N[C@@H](CC(C)C)C(=O)O)C(C)(C)C (H-[Dmt][dR][X1][β3hK]KP[Dmt][Tle]L-OH) : reported Ki = ?
**A:** 7.12

**Q:** Entry Cc1cc(O)cc(C)c1C[C@H](NC(=O)[C@@H]1CCCN1C(=O)[C@H](CCCCN)NC(=O)[C@H](CCCCN)NC(=O)CCN1Cc2ccccc2C[C@H](NC(=O)[C@@H](CCCNC(=N)N)NC(=O)[C@@H](N)Cc2c(C)cc(O)cc2C)C1=O)C(=O)N[C@H](C(=O)N[C@@H](CC(C)C)C(=O)O)C(C)(C)C (H-[Dmt][dR][X1]KKP[Dmt][Tle]L-OH) : reported Ki = ?
**A:** 7.15

These measurements were taken from ChEMBL document CHEMBL4699489.
